Values from patent US20240132578A1

# study-target: HIV-1 92RW020 Env (clade A pseudovirus) (HIV-1)
# method-description: cell-based or functional assay
test-readout: IC50 (µg/mL), pseudovirus neutralization
Hi! Could you send only the number? It should be in µg/mL, unit omitted.

A selection of reference data follows.
# binder, IC50 (µg/mL), pseudovirus neutralization
rows = [
    ("1443_C16 (PG16) (TCN-116) (antibody, V domains shown) VH: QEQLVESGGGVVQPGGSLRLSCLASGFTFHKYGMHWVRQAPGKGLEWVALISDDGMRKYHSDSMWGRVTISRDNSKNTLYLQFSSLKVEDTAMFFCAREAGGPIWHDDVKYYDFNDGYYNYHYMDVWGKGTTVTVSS VL: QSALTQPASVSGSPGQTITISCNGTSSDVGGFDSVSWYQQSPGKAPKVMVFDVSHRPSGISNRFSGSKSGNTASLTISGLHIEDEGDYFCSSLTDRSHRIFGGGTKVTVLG", 0.004),
    ("1495_C14 (PGC14) (antibody, human IgG1, lambda, V domains shown) VH: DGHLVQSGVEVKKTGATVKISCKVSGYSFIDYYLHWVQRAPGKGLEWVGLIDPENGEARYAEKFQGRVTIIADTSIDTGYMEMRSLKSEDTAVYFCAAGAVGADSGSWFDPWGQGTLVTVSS VL: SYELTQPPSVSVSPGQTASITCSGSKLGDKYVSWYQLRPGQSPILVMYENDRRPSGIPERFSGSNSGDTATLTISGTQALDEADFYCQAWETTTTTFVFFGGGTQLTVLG", 28.6),
    ("1456_P20 (PG20) (antibody, human IgG1, kappa, V domains shown) VH: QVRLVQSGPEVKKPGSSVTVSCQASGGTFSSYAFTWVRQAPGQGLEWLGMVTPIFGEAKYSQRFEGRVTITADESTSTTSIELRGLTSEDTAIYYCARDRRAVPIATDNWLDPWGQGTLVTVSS VL: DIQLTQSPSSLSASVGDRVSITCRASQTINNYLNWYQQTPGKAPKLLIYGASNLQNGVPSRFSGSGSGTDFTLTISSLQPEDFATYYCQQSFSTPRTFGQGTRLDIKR", 50),
]

Lab book: IC50 (µg/mL), pseudovirus neutralization of 1496_C09 (PG9) (TCN-109) (antibody, V domains shown) VH: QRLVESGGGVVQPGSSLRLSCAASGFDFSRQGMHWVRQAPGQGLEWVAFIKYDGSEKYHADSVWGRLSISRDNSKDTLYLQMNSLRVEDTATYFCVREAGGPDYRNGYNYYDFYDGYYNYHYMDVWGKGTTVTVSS VL: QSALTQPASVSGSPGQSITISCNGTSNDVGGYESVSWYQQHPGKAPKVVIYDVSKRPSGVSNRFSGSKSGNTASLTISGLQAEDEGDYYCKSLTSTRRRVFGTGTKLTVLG noted as 0.06
